Let's look at some molecules and their measured pIC50.
target: D(2) dopamine receptor (Rattus norvegicus); test: Compound was tested for its binding affinity towards Dopamine receptor D2 by using [3H]domperidone as radioligand
Sequence (P61169 whole entry): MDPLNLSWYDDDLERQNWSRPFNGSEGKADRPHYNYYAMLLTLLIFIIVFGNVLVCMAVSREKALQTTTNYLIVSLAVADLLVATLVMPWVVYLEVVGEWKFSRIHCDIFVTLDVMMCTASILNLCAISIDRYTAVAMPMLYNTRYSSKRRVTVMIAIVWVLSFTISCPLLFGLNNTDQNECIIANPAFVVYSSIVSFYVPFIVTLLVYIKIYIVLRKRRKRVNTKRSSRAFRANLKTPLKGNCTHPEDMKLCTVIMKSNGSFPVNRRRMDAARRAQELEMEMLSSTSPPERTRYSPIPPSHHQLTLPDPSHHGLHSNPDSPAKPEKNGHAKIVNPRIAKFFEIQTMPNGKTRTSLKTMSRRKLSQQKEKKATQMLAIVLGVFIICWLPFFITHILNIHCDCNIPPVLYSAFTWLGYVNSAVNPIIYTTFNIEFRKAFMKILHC
pIC50 (log units): -log10 of the concentration in mol/L.

Worked examples, 2 molecules total:
[[record]]
compound_smiles = "c1ccc(CCCCN2CCC(c3ccccc3)CC2)cc1"
property_name = "pIC50"
recorded_result = 6.78

[[record]]
compound_smiles = "OC1(c2ccccc2)CCN(CCCc2ccccc2)CC1"
property_name = "pIC50"
recorded_result = 5.90


Next molecule, please.
Respond only with pIC50 recorded for c1ccc(CCCN2CCC(c3ccccc3)CC2)cc1 6.47

* * *

Let's look at some molecules and their measured pIC50.
target: D(2) dopamine receptor (Rattus norvegicus); test: Compound was tested for its binding affinity towards dopamine receptor D2 by using [3H]domperidone as radioligand
pIC50 (log units): -log10 of the concentration in mol/L.

[[record]]
compound_smiles = "c1ccc(CCCCN2CCN(c3ccccc3)CC2)cc1"
property_name = "pIC50"
recorded_result = 7.35

[[record]]
compound_smiles = "c1ccc(CCCCCN2CCC(c3ccccc3)CC2)cc1"
property_name = "pIC50"
recorded_result = 6.68


Respond only with pIC50 recorded for c1ccc(N2CCN(CCCc3ccc4ccccc4c3)CC2)cc1 6.80

* * *

molecular target: D(1A) dopamine receptor (Rattus norvegicus, UniProt P18901); assay: Binding affinity towards Dopamine receptor D1 in rat membranes using [3H]SCH-23390 as radioligand; type: cell membranes
Sequence (P18901 whole entry): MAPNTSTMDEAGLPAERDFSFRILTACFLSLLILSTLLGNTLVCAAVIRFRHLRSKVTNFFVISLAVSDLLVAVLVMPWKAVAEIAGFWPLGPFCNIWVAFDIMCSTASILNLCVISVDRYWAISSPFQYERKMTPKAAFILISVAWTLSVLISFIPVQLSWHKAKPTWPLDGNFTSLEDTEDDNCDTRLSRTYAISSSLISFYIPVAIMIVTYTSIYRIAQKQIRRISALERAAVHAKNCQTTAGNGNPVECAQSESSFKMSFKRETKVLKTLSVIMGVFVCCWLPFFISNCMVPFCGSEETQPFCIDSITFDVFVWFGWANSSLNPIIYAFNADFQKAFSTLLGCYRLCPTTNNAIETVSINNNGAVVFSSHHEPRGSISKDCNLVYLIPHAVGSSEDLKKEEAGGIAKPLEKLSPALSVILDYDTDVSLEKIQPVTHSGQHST
pIC50: −log10 of the molar value.
Let's look at some molecules and their measured pIC50.

Worked examples, 3 molecules total:
[[record]]
compound_smiles = "c1ccc(CCCCN2CCN(c3ccccc3)CC2)cc1"
recorded_result = 5.55

[[record]]
compound_smiles = "c1ccc(CCCN2CCC(c3ccccc3)CC2)cc1"
recorded_result = "< 5.00"

[[record]]
compound_smiles = "c1ccc(CCCCN2CCC(c3ccccc3)CC2)cc1"
recorded_result = "< 5.00"


Next molecule, please.
Respond only with pIC50 recorded for OC1(c2ccccc2)CCN(CCCc2ccccc2)CC1 < 5.00
